tested on: Acinetobacter baumannii; assay: Antimicrobial activity against Acinetobacter baumannii ATCC 19606 after 24 hrs by broth microdilution method; type: functional; details: ATCC 19606, 24 h
Each item that follows carries a reported MIC.

[
  {
    "molecule": "O=C(O)c1cn(C2CC2)c2c(cc(F)c3c4ccc(F)cc4[nH]c32)c1=O",
    "value operator": "=",
    "MIC / µg/mL": 12
  },
  {
    "molecule": "COc1c(N2C[C@@H]3CCCN[C@@H]3C2)c(F)cc2c(=O)c(C(=O)O)cn(C3CC3)c12 [MOXIFLOXACIN]",
    "value operator": "=",
    "MIC / µg/mL": 0.15
  },
  {
    "molecule": "CO/N=C1\\CN(c2nc3c(cc2F)c(=O)c(C(=O)O)cn3C2CC2)CC1CN (stereo unspecified) [GEMIFLOXACIN]",
    "value operator": "=",
    "MIC / µg/mL": 0.3
  },
  {
    "molecule": "O=C(O)c1cn(C2CC2)c2cc(N3CCNCC3)c(F)cc2c1=O [CIPROFLOXACIN]",
    "value operator": "=",
    "MIC / µg/mL": 0.7
  },
  {
    "molecule": "COc1c(C)cc2c([nH]c3c2c(F)cc2c(=O)c(C(=O)O)cn(C4CC4)c23)c1C",
    "value operator": ">",
    "MIC / µg/mL": 100
  },
  {
    "molecule": "O=C(O)c1cn(C2CC2)c2c(cc(F)c3c2[nH]c2ccsc23)c1=O",
    "value operator": "=",
    "MIC / µg/mL": 3
  }
]
